B1: ESRRA (parent)
chain: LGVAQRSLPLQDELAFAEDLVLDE

Variants of: B1
ASSAY REMARKS: protein stability index of a GFP-peptide fusion (GPS, HEK-293T) (PSI 1-6); higher = more stable;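 further: lentivirally expressed fusions sorted by FACS into six bins by GFP to DsRed ratio, PSI derived from sequencing read proportions per bin multiplied by bin number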
SETTINGS: c terminus: a fixed tail appended
The following ranges of protein stability index define the classes used here: lower bin (below 2), middle bin (2 to below 4), upper bin (4 or more)

Here's what some known entries look like.
SEQ STRING | ANSWER LABEL
LGVAQRSLPLTDELAFAEDLVLDE [Q11T] | upper bin
LGVARRSLPLQDELAFAEDLVLDE [Q5R] | lower bin
LGVAQRSLPLQDELAFAEDLVLDL [E24L] | middle bin
LGVAQRSLPLQDELAFAEDLVHDE [L22H] | middle bin
LGVAQRSLPLQDELAFAEPLVLDE [D19P] | upper bin

Band assignment needed for LGVAQRSLPLQDELAFAEDLVLNE [D23N] please.
lower bin

Band assignment needed for LGVAQISLPLQDELAFAEDLVLDE [R6I] please.
middle bin

Band assignment needed for LGVAQRSLPLQDELAFAEDTVLDE [L20T] please.
upper bin

Band assignment needed for LGVALRSLPLQDELAFAEDLVLDE [Q5L] please.
middle bin

Band assignment needed for LGVAQRSLPPQDELAFAEDLVLDE [L10P] please.
upper bin

Band assignment needed for LGVAARSLPLQDELAFAEDLVLDE [Q5A] please.
middle bin
